Assay: Plasma pharmacokinetics of BIA 10-2474 and metabolites
Format: in vivo, human
Conditions: both, human, plasma, oral, 5 mg, tmax, single dose 5 mg
ENDPOINT: Tmax

> print(dat)
                                  structure  value.observed
1  CN(C(=O)n1cnc(-c2ccc[n+]([O-])c2)c1)C1CCCCC1             2 h

----------
Test: Plasma pharmacokinetics of BIA 10-2474 and metabolites
Format: in vivo, human
Details: both, human, plasma, oral, 40 mg, CL, single dose 40 mg
ENDPOINT: clearance (mL/min)

> print(dat)
                                  structure   endpoint  value.observed
1  CN(C(=O)n1cnc(-c2ccc[n+]([O-])c2)c1)C1CCCCC1  clearance             116

----------
Test: Plasma pharmacokinetics of BIA 10-2474 and metabolites
Assay type: in vivo, human
Details: both, human, plasma, oral, 100 mg, tmax, single dose 100 mg
ENDPOINT: Tmax (h)

> print(dat)
                                  structure  endpoint  unit.text  value.observed
1  CN(C(=O)n1cnc(-c2ccc[n+]([O-])c2)c1)C1CCCCC1      Tmax          h               2

----------
Test: Plasma pharmacokinetics of BIA 10-2474 and metabolites
Type: in vivo, human
Settings: human, plasma, oral, 2.5 mg, CL, 2.5 mg once daily, Day 10
ENDPOINT: clearance

> print(dat)
                                  structure  value.observed
1  CN(C(=O)n1cnc(-c2ccc[n+]([O-])c2)c1)C1CCCCC1     81.5 mL/min

----------
Assay: Plasma pharmacokinetics of BIA 10-2474 and metabolites
Type: in vivo, human
Details: human, plasma, oral, 5 mg
ENDPOINT: concentration at 10 day

> print(dat)
                                   molecule  value.observed
1  CN(C(=O)n1cnc(-c2ccc[n+]([O-])c2)c1)C1CCCCC1 [BIA 10-2474]    0.0108 µg/mL

----------
Assay: Plasma pharmacokinetics of BIA 10-2474 and metabolites
Type: in vivo, human
Details: both, human, plasma, oral, 0.25 mg, tmax, single dose 0.25 mg
ENDPOINT: Tmax

> print(dat)
                                  structure  endpoint  value.observed
1  CN(C(=O)n1cnc(-c2ccc[n+]([O-])c2)c1)C1CCCCC1      Tmax             2 h

----------
Test: Plasma pharmacokinetics of BIA 10-2474 and metabolites
Assay type: in vivo, human
Conditions: human, plasma, oral, 10 mg
ENDPOINT: AUC(0-inf)

> print(dat)
                                   compound  value.observed
1  CN(C(=O)n1cnc(-c2ccc[n+]([O-])c2)c1)C1CCCCC1 [BIA 10-2474]    1610 ng·h/mL

----------
Test: Plasma pharmacokinetics of BIA 10-2474 and metabolites
Type: in vivo, human
Details: human, plasma, oral, 10 mg, Cmax, single dose 10 mg
ENDPOINT: Cmax (ng/mL)

> print(dat)
                                   compound  endpoint  value.observed
1  CN(C(=O)n1cnc(-c2ccc[n+]([O-])c2)c1)C1CCCCC1 [BIA 10-2474]      Cmax             146
